Where do these numbers come from? They come from paper PMC9316000.

- procedure-text: Pharmacokinetics after repeated-dose intragastric administration in rats
- Type: in vivo, Sprague Dawley rats
- assay-conditions: Sprague-Dawley, rat, plasma, po; female rats, R-IG 6.5 mg/kg, 14 days
parameter: Cmax at 14 days (ng/mL)
Please state the figure in ng/mL; there is no need to write the unit.

Problem: Entry under review: CC1(C)OC2CC(=O)OCC23C1C/C(=N\OCCN1CCOCC1)C1(C)C3CC[C@@]2(C)[C@H](c3ccoc3)OC(=O)C3OC312 (stereo partly shown) . Reported Cmax at 14 days?
Solution: 125

====

- procedure-text: Pharmacokinetics after single-dose intragastric administration in rats
- Assay type: in vivo, Sprague Dawley rats
- assay-conditions: Sprague-Dawley, rat, plasma, po; male rats, S-IG 3.25 mg/kg
parameter: half-life (h)
Please state the figure in h; there is no need to write the unit.

Problem: Entry under review: CC1(C)OC2CC(=O)OCC23C1C/C(=N\OCCN1CCOCC1)C1(C)C3CC[C@@]2(C)[C@H](c3ccoc3)OC(=O)C3OC312 (stereo partly shown) . Reported half-life?
Solution: 2.35
